Assignment: determine reported TGI for the given compounds.
# Tested on: MALME-3M melanoma
# assay protocol: NCI tumour cell line growth inhibition, 48 h

Return reported TGI; argument: COc1cc2c(cc1C)NC(=O)/C2=C\c1cc(OC)c(OC)c(OC)c1 > 100 µM

Return reported TGI; argument: O=C(Nc1ccccc1)c1ccc(Cl)c([N+](=O)[O-])c1 42.4 µM

Return reported TGI; argument: O=C1[C@@H]2Cc3c([nH]c4ccccc34)C(C3CCCCC3)N2C(=O)[C@@H]2CCCN12 (some centres undefined) 51.1 µM

Return reported TGI; argument: CN1CC(c2ccccc2)N(CCCCN2CC(c3ccccc3)N(C)CC2c2ccccc2)CC1c1ccccc1 (centres undefined) 81.8 µM

Return reported TGI; argument: CCOc1ccccc1NC(=O)/C=C1\NC(=O)CS1 > 100 µM

Return reported TGI; argument: COc1ccc(NC2Oc3cc4c(cc3C(c3cc(OC)c(O)c(OC)c3)C2C)OCO4)cc1 (centres undefined) 35.2 µM

Return reported TGI; argument: C=C1C[C@]23C[C@@]1(O)CC[C@H]2[C@@]12C=C[C@H](O)[C@@](C)(C(=O)O1)[C@H]2[C@@H]3C(=O)O > 100 µM

Return reported TGI; argument: CC1=C2C(O)C(C(C)CO)C(O)CC2(C)C(O)CC1 (centres undefined) > 100 µM

Return reported TGI; argument: O=c1ccn(C2OC(CO)C(O)C2O)c(=O)[nH]1 (centres undefined) > 1000 µM

Return reported TGI; argument: CC1(C)C2CC(c3ccncc3)ON2C(C)(C)N1O (centres undefined) > 100 µM

Return reported TGI; argument: NC(N)=N/N=C/c1nc2sccn2c1[N+](=O)[O-] 26.3 µM

Return reported TGI; argument: COc1cc(-c2cc(=O)c3cc4c(cc3[nH]2)OCO4)cc(OC)c1OC > 100 µM

Return reported TGI; argument: c1cnc2c(c1)-n1cccc1C1(CCSCC1)NN2 > 100 µM

Return reported TGI; argument: c1ccc2c(c1)[I+]c1ccccc1-2 > 50 µM

Return reported TGI; argument: Nc1c(C(=O)c2ccccc2)sc2nc(-c3cccs3)ccc12 12.6 µM

Return reported TGI; argument: COc1ccc(-c2c(C3=NCCN3)nnn2-c2ccccc2)cc1 > 100 µM

Return reported TGI; argument: CC1=CSC2=NC(c3ccc(Cl)c(Cl)c3)=CC(c3ccc(Cl)cc3)N12 (centres undefined) > 100 µM

Return reported TGI; argument: NC(=O)c1c[se]c(C2OC(CO)C(O)C2O)n1 (centres undefined) > 100 µM

Return reported TGI; argument: CC1CC(c2ccccc2)=Nc2ccccc2S1(=O)=O (centres undefined) 37.1 µM

Return reported TGI; argument: CCOc1ccc(/C=C/C(=O)c2ccccc2)cc1 35.2 µM

Return reported TGI; argument: CN1C2CC(=O)CC1[C@@H]1OC(c3ccccc3)O[C@H]21 (some centres undefined) > 100 µM

Return reported TGI; argument: O=C(N=Nc1ccccc1Br)NNc1ccccc1Br > 100 µM

Return reported TGI; argument: O=[N+]([O-])c1ccc2[nH]cc(-c3c4ccsc4cc4[nH]c5ccc([N+](=O)[O-])cc5c34)c2c1 9.44 µM

Return reported TGI; argument: CN1CCN(Cc2ccc(NC(=O)c3cncc(C#Cc4cnc(N)c5ccc(F)cc45)c3)cc2C(F)(F)F)CC1 3.93 µM

Return reported TGI; argument: CC1(C)[C@@H]2C[C@H]1c1cnc(-c3ccccn3)cc1C2[C@@H]1c2cc(-c3ccccn3)ncc2[C@@H]2C[C@H]1C2(C)C (some centres undefined) > 100 µM

Return reported TGI; argument: CCCCCCC/C=C/[C@H]1O[C@]23C(=O)C[C@@]4(C[C@@H](OC5OC(CO)C(O)C(O)C5O)C[C@@H]4[C@H]2C=C1C)OC3=O (some centres undefined) 9.87 µM

Return reported TGI; argument: C=CCc1cc2cccc(OC)c2oc1=O > 100 µM

Return reported TGI; argument: Cc1cc(S(=O)(=O)Nc2nc(N)nc(N3N=CCC3C)n2)c(S)cc1Cl (centres undefined) > 10 µM

Return reported TGI; argument: COc1ccc2c(c1)sc1nc(-c3ccccc3)c(-c3ccsc3)n12 > 100 µM

Return reported TGI; argument: CCN(CC)CCCNc1ccc2nnn3c4ccc(O)cc4c(=O)c1c23 26.4 µM

Return reported TGI; argument: CC(C)n1c(=O)n(-c2ccccc2)n(C(C)(C)C)c1=O > 100 µM

Return reported TGI; argument: CN(C(=O)c1ccc(Cl)s1)C(=S)N(C)C(=O)c1ccc(Cl)s1 > 10 µM

Return reported TGI; argument: NC(N)=N/N=C(/c1nc2ccc([N+](=O)[O-])cc2[nH]c1=O)C(O)c1ccco1 (centres undefined) > 100 µM

Return reported TGI; argument: NC(CCCCNC(=O)OCc1ccccc1)C(=O)NC(CCCCNC(=O)OCc1ccccc1)C(=O)ON1C(=O)CCC1=O (centres undefined) > 100 µM

Return reported TGI; argument: COC(=O)C(C)Sc1nc2cc(Cl)ccc2s1 (centres undefined) > 100 µM

Return reported TGI; argument: O=c1[nH]nc(Cc2ccc(Cl)cc2)n1O > 100 µM

Return reported TGI; argument: CCCCCCCCCCCCCCCCNc1nc(=O)n(C2CC(O)C(CO)O2)cc1F (centres undefined) 22.8 µM

Return reported TGI; argument: O=C(NNC(=S)Nc1ccccc1)c1csc(NC(=S)NC2CCCCC2)n1 > 100 µM

Return reported TGI; argument: CCC(=O)c1cn(C)c(=O)c2ccccc12 > 100 µM
